# System: LCLC-103H
# assay_notes: MTT cell viability assay
# Format: cell-based
# condition_label: Homo sapiens, 48 h, hypoxic (1% O2), read-out: IC50 MTT-H mean
Each record here notes measured IC50.
Write it as a number; the unit nM goes unstated.

Look over these answered cases.
Value of measured IC50 for the entry CCOc1c2c(c3ccc(C(=O)N4CCOCC4)cn13)SSSSS2 : 820

Value of measured IC50 for the entry CCOc1c2c(c3ccc(C(=O)N4CCN(C(=O)c5ccc(F)cc5)CC4)cn13)SSSSS2 : 677

New cases:
Value of measured IC50 for the entry CCOc1c2c(c3ccc(C(=O)N4CCCCC4)cn13)SSSSS2 : 1540

Values were extracted from paper PMC8305076.
